Test system: microbiota present in the faecal samples
experiment: Faecal fermentation, distribution of oligosaccharides (HPAEC-PAD peak areas)
measurement_context: Example 2 sample, 6 h, Donor B
Tag: Criterion met if measured Peak areas is not below 2, Criterion not met if it is.

compound | label_value
OC[C@H]1O[C@@H](O[C@H]2[C@@H](O)[C@@H](CO)O[C@@H](O[C@H]3C(O)O[C@H](CO)[C@@H](O)[C@@H]3O)[C@@H]2O)[C@H](O)[C@@H](O)[C@H]1O (stereo partly drawn) [Cpd. ID 30, D-Gal-(β1-3)-D-Gal-(β1-2)-D-Glu] | Criterion not met
O=C[C@H](O)[C@@H](O)[C@H](O)[C@H](O)CO [Glucose] | Criterion met
OC[C@H]1O[C@@H](O[C@@H]2[C@H](O)[C@@H](O)[C@H](O[C@H]3[C@H](O)[C@@H](O)C(O)O[C@@H]3CO)O[C@@H]2CO)[C@H](O)[C@@H](O)[C@H]1O (stereo partly drawn) [Cpd. ID 11, D-Gal-(β1-4)-D-Gal-(β1-4)-D-Glu] | Criterion met
OC[C@H]1O[C@@H](O[C@H]2[C@@H](O)[C@@H](CO)O[C@@H](O[C@H]3[C@H](O)[C@@H](O)C(O)O[C@@H]3CO)[C@@H]2O)[C@H](O)[C@@H](O)[C@H]1O (stereo partly drawn) [Cpd. ID 12, D-Gal-(β1-3)-D-Gal-(β1-4)-D-Glu] | Criterion met
O=C[C@H](O)[C@@H](O)[C@@H](O)[C@H](O)CO [Galactose] | Criterion met

Has OC[C@H]1O[C@@H](OC[C@H]2OC(O)[C@H](O)[C@@H](O)[C@@H]2O)[C@H](O)[C@@H](O)[C@H]1O (stereo partly drawn) [Allolactos, Allolactose] a recorded Peak areas greater than or equal to 2?
Criterion not met

Has OC[C@H]1O[C@@H](O[C@H]2[C@H](O)[C@@H](O)C(O)O[C@@H]2CO)[C@H](O)[C@@H](O)[C@H]1O (stereo partly drawn) [Lactose] a recorded Peak areas greater than or equal to 2?
Criterion met

* * *

System: microbiota present in the faecal samples
experiment: Faecal fermentation, distribution of oligosaccharides (HPAEC-PAD peak areas)
measurement_context: Comp. Ex. 1 sample, 48 h, Donor A
readout_kind: Peak areas
Simply state the number, no unit and no words.

compound | target | Peak areas
OC[C@H]1O[C@@H](O[C@H]2[C@@H](O)[C@@H](CO)O[C@@H](O[C@H]3[C@@H](O)[C@@H](CO)O[C@@H](O[C@H]4[C@H](O)[C@@H](O)C(O)O[C@@H]4CO)[C@@H]3O)[C@@H]2O)[C@H](O)[C@@H](O)[C@H]1O (some centres unmarked) | microbiota present in the faecal samples | 0.0

Let's switch to this compound now.
Answer with the recorded Peak areas of OC[C@H]1O[C@@H](O[C@@H]2[C@H](O)[C@@H](O)[C@H](O[C@H]3[C@H](O)[C@@H](O)C(O)O[C@@H]3CO)O[C@@H]2CO)[C@H](O)[C@@H](O)[C@H]1O (some centres unmarked) only.
0.0

* * *

Collected Peak areas values appear next to each entry.
Tested on: microbiota present in the faecal samples
experiment: Faecal fermentation, distribution of oligosaccharides (HPAEC-PAD peak areas)
measurement_context: Comp. Ex. 1 sample, 24 h, Donor B

Completed entries (count: 5):
compound | Peak areas
O=C[C@H](O)[C@@H](O)[C@@H](O)[C@H](O)CO [Galactose] | 0.1
O=C[C@H](O)[C@@H](O)[C@H](O)[C@H](O)CO [Glucose] | 0.1
OC[C@H]1O[C@@H](O[C@H]2[C@@H](O)[C@@H](CO)O[C@@H](O[C@H]3[C@H](O)[C@@H](CO)OC(O)[C@@H]3O)[C@@H]2O)[C@H](O)[C@@H](O)[C@H]1O (stereo partly drawn) [Cpd. ID 29, D-Gal-(β1-3)-D-Gal-(β1-3)-D-Glu] | 0.4
OC[C@H]1O[C@@H](O[C@H]2[C@@H](O)[C@@H](CO)O[C@@H](O[C@H]3[C@H](O)[C@@H](O)C(O)O[C@@H]3CO)[C@@H]2O)[C@H](O)[C@@H](O)[C@H]1O (stereo partly drawn) [Cpd. ID 12, D-Gal-(β1-3)-D-Gal-(β1-4)-D-Glu] | 0.4
OC[C@H]1O[C@@H](O[C@@H]2[C@H](O)[C@@H](O)[C@H](O[C@H]3[C@H](O)[C@@H](O)C(O)O[C@@H]3CO)O[C@@H]2CO)[C@H](O)[C@@H](O)[C@H]1O (stereo partly drawn) [Cpd. ID 11, D-Gal-(β1-4)-D-Gal-(β1-4)-D-Glu] | 2.0

Answer with the recorded Peak areas of OC[C@H]1O[C@@H](O[C@H]2[C@@H](O)[C@@H](CO)O[C@@H](O[C@H]3[C@@H](O)[C@@H](CO)O[C@@H](O[C@H]4[C@H](O)[C@@H](O)C(O)O[C@@H]4CO)[C@@H]3O)[C@@H]2O)[C@H](O)[C@@H](O)[C@H]1O (stereo partly drawn) [Cpd. ID 31] only.
0.5

Answer with the recorded Peak areas of OC[C@H]1O[C@@H](OC[C@H]2OC(O)[C@H](O)[C@@H](O)[C@@H]2O)[C@H](O)[C@@H](O)[C@H]1O (stereo partly drawn) [Allolactos, Allolactose] only.
0.0

Answer with the recorded Peak areas of OC[C@H]1O[C@@H](O[C@H]2[C@H](O)[C@@H](O)C(O)O[C@@H]2CO)[C@H](O)[C@@H](O)[C@H]1O (stereo partly drawn) [Lactose] only.
0.5

Answer with the recorded Peak areas of OC[C@H]1O[C@@H](O[C@H]2[C@@H](O)[C@@H](CO)O[C@@H](O[C@H]3C(O)O[C@H](CO)[C@@H](O)[C@@H]3O)[C@@H]2O)[C@H](O)[C@@H](O)[C@H]1O (stereo partly drawn) [Cpd. ID 30, D-Gal-(β1-3)-D-Gal-(β1-2)-D-Glu] only.
0.5
